# ASSAY TARGET: Pin1 (Homo sapiens, UniProt Q13526)
# Sequence (Q13526 whole entry): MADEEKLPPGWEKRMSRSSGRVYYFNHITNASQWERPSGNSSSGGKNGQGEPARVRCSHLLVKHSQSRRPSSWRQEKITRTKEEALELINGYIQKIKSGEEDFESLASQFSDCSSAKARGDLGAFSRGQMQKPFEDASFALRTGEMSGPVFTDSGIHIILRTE
# ASSAY OVERVIEW: Pin1 fluorescence polarization competition assay with Tamra-probe (secondary)
# MEASUREMENT CONDITIONS: read-out: Tamra Secondary Efficacy
I'd appreciate it if you could supply Emax values for the items below.

Emax recorded for this molecule, COc1ccc(C(=O)c2no[n+]([O-])c2C(=O)c2ccc(OC)cc2)cc1 , is 81%

Emax recorded for this molecule, Cc1ccc(C(=O)c2no[n+]([O-])c2C(=O)c2ccc(C)cc2)cc1 , is 82%

Emax recorded for this molecule, N#Cc1no[n+]([O-])c1C(=O)c1cccs1 , is 82%

Emax recorded for this molecule, O=C(O)CCCNC(=O)/C=C/c1ccco1 , is 78%

---

# ASSAY TARGET: Pin1 (Homo sapiens)
# ASSAY OVERVIEW: Pin1 fluorescence polarization competition assay, primary qHTS (HiFluor-488 / Alexa488 probe)
# MEASUREMENT CONDITIONS: read-out: Average HTS Efficacy
// label = fulfilled if Emax is not less than 70%, otherwise not fulfilled

q: Exam item: decide whether the reported Emax for Cc1c(C(=O)c2no[n+]([O-])c2C(=O)c2cnn(C)c2C)cnn1C is at least 70%.
a: fulfilled

q: Exam item: decide whether the reported Emax for Cc1ccc(C)n1-c1sccc1C(=O)O is at least 70%.
a: fulfilled

q: Exam item: decide whether the reported Emax for O=C1OC(/C(=C\Nc2cc(Cl)ccc2O)[N+](=O)[O-])c2ccccc21 (stereo not shown) is at least 70%.
a: fulfilled

q: Exam item: decide whether the reported Emax for COc1cc(C(c2c(C(=O)O)[nH]c3ccccc23)c2c(C(=O)O)[nH]c3ccccc23)ccc1OCc1ccccc1 is at least 70%.
a: not fulfilled

q: Exam item: decide whether the reported Emax for Cc1oc(-c2ccc3c(c2)OCCO3)cc1C(=O)NC(Cc1ccccc1)C(=O)O (stereo not shown) is at least 70%.
a: not fulfilled

q: Exam item: decide whether the reported Emax for CCCCOc1ccc(C(=O)N/C(=C/c2cccc([N+](=O)[O-])c2)C(=O)O)cc1 is at least 70%.
a: fulfilled

q: Exam item: decide whether the reported Emax for Cc1cc(C(=O)NCc2ccc(C(=O)O)o2)c(C)o1 is at least 70%.
a: not fulfilled

q: Exam item: decide whether the reported Emax for O=C(O)c1[nH]c2ccccc2c1C(c1cc(Br)ccc1O)c1c(C(=O)O)[nH]c2ccccc12 is at least 70%.
a: not fulfilled

---

I'd appreciate it if you could supply Emax values for the items below.
# ASSAY TARGET: UniProt Q13526
# ASSAY OVERVIEW: Pin1 fluorescence polarization competition assay, primary qHTS (HiFluor-488 / Alexa488 probe)
# MEASUREMENT CONDITIONS: read-out: Average HTS Efficacy
State just the number; it will be interpreted in %.

Kindly note: UniProt Q13526, CC(C)COc1ccc(C(=O)N/C(=C\c2cccc([N+](=O)[O-])c2)C(=O)O)cc1 , Emax value reported: 47

Kindly note: UniProt Q13526, CC(=O)c1ccc2c(c1)C1C=CCC1C(C(=O)O)N2 (centres unmarked) , Emax value reported: 84

Kindly note: UniProt Q13526, O=C(O)C1Nc2c(O)cc(Cl)c([N+](=O)[O-])c2C2C=CCC12 (centres unmarked) , Emax value reported: 81

Kindly note: UniProt Q13526, Cc1ccc(C(=O)c2no[n+]([O-])c2C(=O)c2ccc(C)cc2)cc1 , Emax value reported: 85

Kindly note: UniProt Q13526, CCCCCCCCCCCCN1[C@@H](C(=O)O)c2cc(C(F)(F)F)ccc2S1(=O)=O , Emax value reported: 91

Kindly note: UniProt Q13526, Cn1nc(-c2ccncc2)nc2c(=O)n(C)c(=O)nc1-2 , Emax value reported: 48

Kindly note: UniProt Q13526, COc1ccc(NS(=O)(=O)c2ccc3c(c2)[C@H]2C=CC[C@H]2[C@@H](c2ccc(C(=O)O)cc2)N3)cc1 , Emax value reported: 83

Kindly note: UniProt Q13526, O=C(O)C1Nc2c(Cl)cc(Cl)c(Cl)c2C2C=CCC12 (centres unmarked) , Emax value reported: 63

---

# ASSAY TARGET: Pin1 (Homo sapiens)
# ASSAY OVERVIEW: confirmatory Pin1 fluorescence polarization competition assay (Alexa488 reconfirmed)
I'd appreciate it if you could supply pIC50 values for the items below.
# pIC50 = -log10(concentration in molar units)

Kindly note: Pin1 (Homo sapiens), Cc1ccc(N(Cc2cc(=O)[nH]c3ccccc23)C(=O)CCl)cc1 , pIC50 value reported: 5.70

Kindly note: Pin1 (Homo sapiens), COc1ccc(NS(=O)(=O)c2ccc3c(c2)[C@H]2C=CC[C@H]2[C@@H](c2ccc(C(=O)O)cc2)N3)cc1 , pIC50 value reported: 5.00

Kindly note: Pin1 (Homo sapiens), O=S(=O)(O)c1ccc(O)c2cc(Nc3ccccc3)ccc12 , pIC50 value reported: 5.70

Kindly note: Pin1 (Homo sapiens), Cc1ccc(C)n1-c1sccc1C(=O)O , pIC50 value reported: 5.70

Kindly note: Pin1 (Homo sapiens), O=S(=O)(Nc1nc(-c2sccc2Cl)cs1)c1cc(Cl)ccc1Cl , pIC50 value reported: 4.85

---

I'd appreciate it if you could supply Emax values for the items below.
# ASSAY TARGET: Pin1 (Homo sapiens, UniProt Q13526)
# ASSAY OVERVIEW: Pin1 fluorescence polarization competition assay with Tamra-probe (secondary)
# MEASUREMENT CONDITIONS: read-out: Tamra Secondary Efficacy

Emax recorded for this molecule, CC(C)COc1ccc(C(=O)N/C(=C\c2cccc([N+](=O)[O-])c2)C(=O)O)cc1 , is 58%

Emax recorded for this molecule, Cc1ccc(C)n1-c1cccc(C(=O)O)c1 , is 89%

Emax recorded for this molecule, Cc1ccc(C)c2c1NC(C(=O)O)C1CC=CC21 (stereo not shown) , is 63%

Emax recorded for this molecule, COc1ccc(NC(=O)CN(C)C(O)c2cc(-c3ccco3)nc3ccccc23)cc1 (stereo not shown) , is 53%

Emax recorded for this molecule, O=C(O)C1Nc2c(O)cccc2C2C=CCC12 (stereo not shown) , is 37%

Emax recorded for this molecule, O=C(NC(Cc1ccccc1)C(=O)O)/C(=C\c1ccco1)NC(=O)c1ccccc1 (stereo not shown) , is 75%

Emax recorded for this molecule, O=C(c1ccc(=O)oc1)N1CCOCC1 , is 70%

---

# ASSAY TARGET: Pin1 (Homo sapiens)
# ASSAY OVERVIEW: confirmatory Pin1 fluorescence polarization competition assay (Alexa488 reconfirmed);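 further: Pin1 competition with a HiFluor488-labelled peptide probe, read as fluorescence polarization after 10 min at room temperature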
MEASURE NAME: pIC50
# pIC50 = -log10(concentration in molar units)

pIC50 recorded for this compound, O=C(O)c1cc(Cl)c2c(c1)[C@@H]1C=CC[C@@H]1[C@H](c1ccc(S(=O)(=O)N3CCOCC3)cc1)N2 , is 4.72

pIC50 recorded for this compound, O=C(NC(Cc1ccccc1)C(=O)O)/C(=C\c1ccco1)NC(=O)c1ccccc1 (stereo not drawn) , is 5.05

pIC50 recorded for this compound, CC(C)COc1ccc(C(=O)N/C(=C\c2cccc([N+](=O)[O-])c2)C(=O)O)cc1 , is 4.82

---

I'd appreciate it if you could supply Emax values for the items below.
# ASSAY TARGET: Pin1 (Homo sapiens, UniProt Q13526)
# ASSAY OVERVIEW: Pin1 fluorescence polarization competition assay, primary qHTS (HiFluor-488 / Alexa488 probe);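 further: Pin1 protein with fluorescent peptide probe, compound displacement read by fluorescence polarization, percent inhibition derived from corrected polarization values, concentration-response curves in 1536-well format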
# MEASUREMENT CONDITIONS: read-out: Alexa488 Primary Efficacy
State just the number; it will be interpreted in %.

Emax recorded for this compound, O=C(O)C1Nc2c(O)cccc2C2C=CCC12 (stereo not shown) [Compound 4] , is 23

Emax recorded for this compound, O=C(O)CCCNC(=O)/C=C/c1ccco1 [Compound 19] , is 41

Emax recorded for this compound, CC(=O)Nc1cc(=O)c2[nH]o[nH]c=2c1=O [Compound 50] , is 93

Emax recorded for this compound, CCCCCC(=O)Nc1cc(S(=O)(=O)O)cc2cc(S(=O)(=O)O)cc(O)c12 [Compound 16] , is 54

Emax recorded for this compound, O=C(O)C1Nc2c(Cl)cc(Cl)c(Cl)c2C2C=CCC12 (stereo not shown) [Compound 5] , is 53

Emax recorded for this compound, COC(=O)COc1ccc(C2Nc3c(Cl)ccc(C(=O)O)c3C3C=CCC32)cc1 (stereo not shown) [Compound 42] , is 73

Emax recorded for this compound, O=C(O)c1[nH]c2ccccc2c1C(c1cc(Cl)cc([N+](=O)[O-])c1O)c1c(C(=O)O)[nH]c2ccccc12 [Compound 44] , is 90

Emax recorded for this compound, Cc1oc(-c2ccc3c(c2)OCCO3)cc1C(=O)NC(Cc1ccccc1)C(=O)O (stereo not shown) [Compound 21] , is 58

Emax recorded for this compound, Cc1ccc(C)c2c1NC(C(=O)O)C1CC=CC21 (stereo not shown) [Compound 7] , is 63

Emax recorded for this compound, COc1ccc(NC(=O)CN(C)C(=O)c2cc3c(s2)CCC3)cc1 [Compound 26] , is 71

Emax recorded for this compound, O=C(O)C1Nc2c(O)cc(Cl)c([N+](=O)[O-])c2C2C=CCC12 (stereo not shown) [Compound 2] , is 86

Emax recorded for this compound, COc1ccc(NS(=O)(=O)c2ccc3c(c2)[C@H]2C=CC[C@H]2[C@@H](c2ccc(C(=O)O)cc2)N3)cc1 [Compound 40] , is 55

Emax recorded for this compound, O=C(c1ccc(=O)oc1)N1CCOCC1 [Compound 20] , is 73

Provenance of the data: patent US11129835B2
